System: SW-620 colon
protocol.summary: NCI tumour cell line growth inhibition, 48 h
experimental.readout: TGI (µM)
One number for each entry, in µM.

# compound, system.tested, result.units, TGI
rows = [
    ("C=CCO[C@]1(CC=C)C(=O)C(=O)OC1C1COC(C)(C)O1 (stereo not given in full)", "SW-620 colon", "µM", 35.4),
]

# context switch: different compound, same TGI
Value (TGI, SW-620 colon) for record `Nc1nc(N)c2cc(NCc3ccc(Cl)c(Cl)c3)ccc2n1` = 1.59

###

System: DU-145 prostate
protocol.summary: NCI tumour cell line growth inhibition, 48 h
Provide the reported GI50 of each item.

# molecule, GI50
rows = [
    ("COc1ccc2nc3cc([N+](=O)[O-])ccc3c(NCCCN(C)C)c2c1", "0.175 µM"),
    ("COc1cc(Nc2nc3ccccc3cc2C(=O)Nc2ccc(F)c(F)c2)cc(OC)c1OC", "4.25 µM"),
    ("COc1nc(N)nc2c1ncn2C1OC(CO)C(O)C1O (stereo unspecified)", "> 5000 µM"),
    ("Nc1nc(N)c2cc(NCc3ccc(Cl)c(Cl)c3)ccc2n1", "1.65 µM"),
    ("O=C(Nc1ccc(-n2ccc3c(NC(=O)c4ccccc4)ncnc32)cc1)Nc1cccc(Cl)c1Cl", "1.47 µM"),
]

# context switch: different molecule, same GI50
Value (GI50, DU-145 prostate) for record `COc1cc(-c2nc(-c3nc4ccccc4[nH]3)cc3c2[nH]c2ccccc23)cc(OC)c1OC` = 6.27 µM

###

Test system: OVCAR-8 ovarian
protocol.summary: NCI tumour cell line growth inhibition, 48 h
Provide the reported TGI of each item.

The examples below pair each entry with its known result.
# compound, result
measured = [
    ("CCOC(=N)/C(=C1\\OC(N)=C(c2ccc(Cl)cc2)C1=O)c1ccc(Cl)cc1", "28.7 µM"),
    ("Cc1cc(CC(C)CC(C)(C)C)n(O)c(=O)c1 (stereo not given) (tested in a mixture with another compound)", "> 100 µM"),
    ("Cc1cc(C)c(NC(=S)NC(=O)c2ccccc2)cc1C", "> 100 µM"),
    ("COC(=O)C(Cc1nc2ccccc2[nH]c1=O)C(=O)C(=O)Nc1ccc([N+](=O)[O-])cc1[N+](=O)[O-] (stereo not given)", "52.6 µM"),
]

# context switch: different compound, same TGI
So, `Cc1noc(NC2=CC(=O)C(=O)c3ccccc32)c1C` ? Its TGI was > 100 µM

###

Test system: SK-MEL-5 melanoma
protocol.summary: NCI tumour cell line growth inhibition, 48 h
Record 1.0 whenever TGI is at 3 µM or higher; record 0.0 when lower.

# molecule, classification
records = [
    ("COC(=O)N1CC2C3C4CC(C(c5ccccc5)=C4c4ccccc4)C3C21 (stereo not drawn)", 1.0),
    ("CSc1n[n+]2c(s1)SCCC2", 1.0),
    ("CC(C)(C)C(=O)OCC1CCC(n2cnc3c(=O)[nH]c(N)nc32)O1 (stereo not drawn)", 1.0),
]

I'd appreciate it if you could say whether C/C=C/C1OC(O)(C(C)C(O)[C@H](C)C2OC(=O)/C(OC)=C/C(C)=C/[C@@H](C)[C@@H](O)[C@@H](C)C(O)C(C)C/C(C)=C/C=C/C2OC)C[C@@H](OC2CC(O)C(OC(N)=O)C(C)O2)C1C (stereo partly drawn) has TGI at least equal to 3 µM.
0.0

I'd appreciate it if you could say whether CCOP(=O)(OCC)C(C#N)Cc1ccco1 (stereo not drawn) has TGI at least equal to 3 µM.
1.0

I'd appreciate it if you could say whether `Cc1c2c(OCCN3CCCCC3)nn(C)c(=O)c2c(C)n1-c1ccccc1` has TGI at least equal to 3 µM.
1.0

I'd appreciate it if you could say whether `CCN(CC)CCCNC(=O)c1c2c(n3ccccc13)C(=O)c1ncccc1C2=O` has TGI at least equal to 3 µM.
0.0

I'd appreciate it if you could say whether `O=C(O)CCC(=O)c1ccc(Cl)cc1` has TGI at least equal to 3 µM.
1.0

I'd appreciate it if you could say whether O=[N+]([O-])C1Cc2ccccc2OC1c1ccccc1 (stereo not drawn) has TGI at least equal to 3 µM.
1.0

I'd appreciate it if you could say whether c1c[nH]c(C23C4C5C6C4C2C6C53)n1 (stereo not drawn) has TGI at least equal to 3 µM.
1.0

I'd appreciate it if you could say whether CCCCCCCCCCCCCCCC(=O)N(CCCCCCCCCCC(=O)O)CC(O)C(O)C(OC1OC(CO)C(O)C(O)C1O)C(O)CO (stereo not drawn) has TGI at least equal to 3 µM.
1.0

I'd appreciate it if you could say whether `Cc1cn2c(/C=N/N=C(N)N)c(-c3cccs3)nc2s1` has TGI at least equal to 3 µM.
0.0

I'd appreciate it if you could say whether `CC(=O)OC[C@@H](OC(C)=O)[C@H](OC(C)=O)[C@@H]1OC(C)(C)O[C@@H]1C1SCCCS1` has TGI at least equal to 3 µM.
1.0

###

Tested on: SR leukemia
protocol.summary: NCI tumour cell line growth inhibition, 48 h; in the data active = GI50 below about 0.43 µM; inactive = the rest
Parameter call: string, one of active, inactive

# molecule, system.tested, classification
rows = [
    ("COc1cc(-c2nc(-c3nc4ccccc4[nH]3)cc3c2[nH]c2ccccc23)cc(OC)c1OC", "SR leukemia", "inactive"),
    ("C=C1CCC2C(C)(COC(=O)CC)C(OC(=O)CC)CCC2(C)C1C/C=C1/C(=O)OCC1OC(=O)CC (centres undefined)", "SR leukemia", "inactive"),
    ("Cc1ccc(N(CC(=O)Nc2ccc(S(=O)(=O)N3CCC(N4CCCC4)CC3)cc2)S(=O)(=O)c2ccc(Cl)cc2)cc1", "SR leukemia", "active"),
    ("COc1cc(CNc2ccccc2C(=O)N2CCN(C(=O)c3cc(-c4cc(OC)c(OC)c(OC)c4)n4nc(-c5ccccc5)cc4n3)CC2)cc(OC)c1OC", "SR leukemia", "inactive"),
    ("Cc1cc(CC(C)CC(C)(C)C)n(O)c(=O)c1 (centres undefined) (tested in a mixture with another compound)", "SR leukemia", "active"),
]

What call does the record list for `Cc1cc(C)c(Cn2cnc3c(Cl)ncnc32)c(C)c1CCl` ?
inactive

What call does the record list for `CN1C(=O)N[C@H]2[C@@H]3NC(=O)c4ccc(Br)n4[C@@H]3C[C@]21O` ?
active

What call does the record list for `COC(=O)c1cc(O)c2c(c1C(=O)OC)C[C@H]1[C@@H]3CC=C4C[C@@H](O)CC[C@]4(C)[C@H]3CC[C@]21C` ?
inactive

What call does the record list for `COc1cccc(/C=C/C(=O)c2ccc(Cl)cc2Cl)c1` ?
inactive

###

Provide the reported TGI of each item.
Test system: OVCAR-8 ovarian
protocol.summary: NCI tumour cell line growth inhibition, 48 h

The examples below pair each entry with its known result.
# compound, TGI
data = [
    ("CN(C)c1nc(=Nc2cccc(Cl)c2)ss1", "25.6 µM"),
    ("CN1C(=O)C(=O)c2cc3c(c4c2c1cc1ccccc14)OCO3", "> 100 µM"),
]

List reported TGI for each of these compounds:
1. CN(C)C(=O)OC(Cn1cncn1)(Cn1cncn1)c1ccc(Cl)cc1Cl
2. CC(C)(C)C(=O)OCC1CCC(n2cnc3c(=O)[nH]c(N)nc32)O1 (configuration not stated)
3. COc1ccc(CN=C(N)N)c2ccccc12
4. O=C(OCc1ncc(-c2ccc(C(F)(F)F)cc2)c(NC2CCCCCC2)n1)c1c(F)c(F)c(F)c(F)c1F
5. CCOC(=O)C(NC(=O)c1ccccc1)(N1CCOCC1)C(F)(F)F (configuration not stated)

["> 100 µM", "> 100 µM", "> 100 µM", "34 µM", "> 100 µM"]

###

Provide the reported log10 of TGI of each item.
Tested on: NCI-H460 lung
protocol.summary: NCI tumour cell line growth inhibition, 48 h
Recorded TGI (log10, µM)

The examples below pair each entry with its known result.
# compound, log10 of TGI
rows = [
    ("CC(C)(C)C1CCC2c3c([nH]c4ccccc34)C3C(=O)N(c4ccccc4)C(=O)C3C2C1 (stereo not drawn)", 1.10),
    ("Cc1cc(N2CCSCC2)nc(NC2CCCC(Nc3ccnc4cc(Cl)ccc34)C2)n1 (stereo not drawn)", 0.62),
]

List reported log10 of TGI for each of these compounds:
1. O=C1OC(O)C(Oc2c(Cl)cccc2Cl)=C1Cl (stereo not drawn)
2. Cc1ccc(N(CC(=O)Nc2ccc(S(=O)(=O)N3CCC(N4CCCC4)CC3)cc2)S(=O)(=O)c2ccc(Cl)cc2)cc1
3. c1csc(C[N+]23CN4CN(CN(C4)C2)C3)c1

1. 1.47
2. 0.54
3. 1.69
